# System: mitochondrial membrane potential
# Assay type: cell-based, mouse
# measurement-setup: composite Z-score vs mock-treated (DMSO) wells; Conc 20 μM
# Lookup of reported ΔΨm keyed by entry
recorded-endpoint: ΔΨm

| compound | target | recorded-endpoint | measured-value |
| --- | --- | --- | --- |
| C=CC(C1=CC(=O)C(OC)=C(OC)C1=O)c1ccccc1 (centres unmarked) [3,4-dimethoxydalbergione, reference compound] | mitochondrial membrane potential | ΔΨm | −3.787 |
| CC(=O)O[C@@H]1CC2C(C)(C)CCC[C@]2(C)C2CC[C@]3(C)C(=CC(=O)O[C@H]3c3ccoc3)[C@@]21C (some centres unmarked) [deoxodeoxydihydrogedunin] | mitochondrial membrane potential | ΔΨm | 0.941 |
| COc1ccc([C@@H](C)C(=O)c2ccc(O)cc2O)cc1 [(R)-angolensin] | mitochondrial membrane potential | ΔΨm | −0.444 |
| COC(=O)C[C@H]1C(C)(C)[C@@H](OC(C)=O)[C@@H]2CC3=C4CC(=O)O[C@@H](c5ccoc5)[C@]4(C)CC[C@@H]3[C@@]1(C)C2=O [fissinolide] | mitochondrial membrane potential | ΔΨm | −0.324 |
| COc1cccc2c1CCC1=CC(=O)CCC12C (centres unmarked) | mitochondrial membrane potential | ΔΨm | −0.506 |
| COc1c2c(cc3c1OCO3)CC[N+](C)=C2 | mitochondrial membrane potential | ΔΨm | −1.103 |
| COC(=O)[C@@H]1OC(=O)C2OC23[C@@]1(C)CCC1[C@@]2(C)CCC(=O)C(C)(C)C2C[C@@H](OC(C)=O)[C@]13C (some centres unmarked) [dihydrogedunic acid, methyl ester] | mitochondrial membrane potential | ΔΨm | −0.320 |
| COc1cc2occc2c2oc(=O)ccc12 | mitochondrial membrane potential | ΔΨm | −0.112 |
| COc1ccc([C@H]2Oc3c(I)c(OC)cc(OC)c3C[C@@H]2O)cc1OC [8-iodocatechin tetramethyl ether, reference compound] | mitochondrial membrane potential | ΔΨm | 0.146 |
| COc1ccc2c(c1OC)OC[C@@H](c1ccc(OC)c(OC)c1OC)C2 | mitochondrial membrane potential | ΔΨm | 0.556 |
| C=C1C2CC[C@@]3(C)[C@H](c4ccoc4)OC(=O)C[C@]13O[C@H]1CC(=O)C(C)(C)[C@H](C(O)C(=O)OC)[C@@]21C (some centres unmarked) [6-hydroxyangolensic acid methyl ester] | mitochondrial membrane potential | ΔΨm | 0.463 |
| CCOC(=O)c1oc2c(OC)c(O)cc(O)c2c(=O)c1-c1cc(OC)c(OC)c(OC)c1 | mitochondrial membrane potential | ΔΨm | −0.397 |
| CCC(=O)OC1[C@@H]2CC3=C4CC(=O)O[C@@H](c5ccoc5)[C@]4(C)CCC3[C@@](C)(C2=O)[C@@H](CC(=O)OC)C1(C)C (some centres unmarked) | mitochondrial membrane potential | ΔΨm | −0.095 |
| CC(=O)O[C@H]1C[C@@H](OC(C)=O)C(C)(C)C2CC(=O)[C@]3(C)C(CC[C@@]4(C)[C@H](c5ccoc5)OC(=O)[C@H]5O[C@]543)[C@]21C (some centres unmarked) | mitochondrial membrane potential | ΔΨm | 0.258 |

* * *

# System: cytochrome c
# Format: cell-based, mouse
# measurement-setup: composite Z-score vs DMSO wells; Conc 20 μM
Classification field: T = cyt c at or over -0.3; F = cyt c under -0.3.

| compound | target | assigned-label |
| --- | --- | --- |
| CC(=O)O[C@H]1C[C@H](O[C@H]2[C@@H](O)C[C@H](O[C@H]3[C@@H](O)C[C@H](O[C@H]4CC[C@@]5(C)[C@H](CC[C@@H]6[C@@H]5C[C@@H](O)[C@]5(C)[C@@H](C7=CC(=O)OC7)CC[C@]65O)C4)O[C@@H]3C)O[C@@H]2C)O[C@H](C)[C@H]1O[C@@H]1O[C@H](CO)[C@@H](O)[C@H](O)[C@H]1O [lanatoside C] | cytochrome c | T |
| CC[N+](CC)(CC)CCOc1cccc(OCC[N+](CC)(CC)CC)c1OCC[N+](CC)(CC)CC | cytochrome c | F |
| COc1ccc(-c2cc(=O)c3c(O)cc(O[C@@H]4O[C@H](CO[C@@H]5O[C@@H](C)[C@H](O)[C@@H](O)[C@H]5O)[C@@H](O)[C@H](O)[C@H]4O)cc3o2)cc1O | cytochrome c | F |
| CC(=O)N[C@@H](CC(=O)N[C@@H](CCC(=O)O)C(=O)O)C(=O)O | cytochrome c | T |
| CN(C)CCOC(=O)C(c1ccccc1)C1(O)CCCC1 (stereo not drawn) [cyclopentolate] | cytochrome c | T |
| CCCC(=O)Nc1ccc(OCC(O)CNC(C)C)c(C(C)=O)c1 (stereo not drawn) | cytochrome c | T |

* * *

# System: C2C12 myotubes
# measurement-setup: composite Z-score vs DMSO wells; Conc 20 μM
# Lookup of reported Viability keyed by entry

| compound | target | Viability |
| --- | --- | --- |
| CC[C@@]1(O)C[C@H](O[C@H]2C[C@H](N(C)C)[C@H](O)[C@H](C)O2)c2c(cc3c(c2O)C(=O)c2c(O)cccc2C3=O)[C@H]1C(=O)OC [aklavine] | C2C12 myotubes | −2.971 |
| Oc1c(Cl)cc(Cl)c2cccnc12 [chloroxine] | C2C12 myotubes | −1.392 |
| O=C1C(O)=C(O)C(=O)C(O)=C1O [tetroquinone] | C2C12 myotubes | 0.088 |
| Cc1cc(NC(=O)C2=C(O)c3ccccc3S(=O)(=O)N2C)no1 [isoxicam] | C2C12 myotubes | 0.010 |
| CC(=O)N[C@@H](CC(C)C)C(=O)O [acetyl-L-leucine] | C2C12 myotubes | −0.465 |

* * *

# Test system: reactive oxygen species
# Type: cell-based, mouse
# measurement-setup: composite Z-score vs DMSO; Conc 20 μM
Rule: measured ROS below 0.3 gets Yes; anything equal to or greater than 0.3 gets No.

| compound | assigned-label |
| --- | --- |
| Cc1c(C(=O)O)c(O)cc2c1C(=O)c1c(O)c([C@@H]3O[C@H](CO)[C@@H](O)[C@H](O)[C@H]3O)c(O)c(O)c1C2=O [carminic acid] | Yes |
| O=c1c2ccccc2oc2ccc(O)cc12 [2-hydroxyxanthone] | No |
| CN1CCc2cc3c(cc2[C@H]1[C@@H]1OC(=O)c2c1ccc1c2OCO1)OCO3 [(+)-bicuculline] | No |
| C[C@]12CCC(=O)C(O)=C1CC[C@@H]1[C@@H]2CC[C@]2(C)C(=O)CC[C@@H]12 [formestane] | No |
| C[C@]12CC[C@@H]3c4ccc(O)cc4CC[C@H]3[C@@H]1CC[C@@H]2O [estradiol] | No |
| COc1ccc2cc([C@H](C)CO)ccc2c1 [naproxol] | Yes |
| C=C1CCC2C(CC2(C)C)C(=O)CCC1O (centres unmarked) [isokobusone] | Yes |
| CC(=O)[C@@]1(O)CC[C@H]2[C@@H]3C=C(Cl)C4=CC(=O)[C@@H]5C[C@@H]5[C@]4(C)[C@H]3CC[C@@]21C [cyproterone] | No |
| CC(C)[C@@H](C)/C=C/[C@@H](C)[C@H]1CC[C@H]2C3=CC=C4C[C@@H](O)CC[C@]4(C)[C@H]3CC[C@]12C [ergosterol] | Yes |
| CC1(C)O[C@H]2CC(=O)OC[C@]23[C@H]2CC[C@@]4(C)[C@H](c5ccoc5)OC(=O)[C@H]5O[C@]54[C@]2(C)C(=O)C[C@@H]13 [limonin] | No |
| COC(=O)c1c(C)cc(O)cc1O [methyl orsellinate] | No |
| C[C@H](N)CO [I-alaninol] | Yes |
| N=C(N)N.N=C(N)N.O=C(O)O [guanidine carbonate] | No |
| CO/N=C(\C(=O)N[C@@H]1C(=O)N2C(C(=O)OCOC(=O)C(C)(C)C)=C(/C=C\c3scnc3C)CS[C@H]12)c1csc(N)n1 [cefditorin pivoxil] | No |
| CCCCCc1c2c(cc(O)c1C(=O)O)OC(=O)c1c(cc(OC)cc1C(=O)CCCC)O2 [lobaric acid] | No |
| CC1=C(O)C(=O)C=C2C1=CC=C1[C@@]2(C)CC[C@@]2(C)[C@@H]3C[C@](C)(C(=O)O)CC[C@]3(C)CC[C@]12C [celastrol] | Yes |
| C[C@@H]1O[C@@H](O[C@H]2C[C@@H](O)[C@]3(CO)[C@H]4[C@H](O)C[C@]5(C)[C@@H](C6=CC(=O)OC6)CC[C@]5(O)[C@@H]4CC[C@]3(O)C2)[C@H](O)[C@H](O)[C@H]1O [ouabain] | No |
| CC(=O)c1ccc(O)c(CC=C(C)C)c1 [3-prenyl-4-hydroxyacetophenone] | No |
| COc1cc2c(cc1OC)[C@@H]1C(=O)c3ccc4c(c3O[C@@H]1CO2)CC(C(C)C)O4 (stereo partly drawn) [beta-dihydrorotenone, reference compound] | Yes |
| CC(=O)Nc1c(I)cc(I)c(C(=O)O)c1I [acetriazoic acid] | No |
| COC(=O)C1(C)CCCC2(C)c3ccc(C(C)C)cc3C(=O)CC12 (centres unmarked) [7-oxocallitrisic acid, methyl ester] | Yes |
| C[C@@]12CCc3occc3[C@H]1CC[C@@]13C[C@@H](CC[C@H]12)[C@@](O)(CO)C3 [cafestol] | No |
| O=C(c1ccccc1)c1ccc2n1CCC2C(=O)O (centres unmarked) [ketorolac] | No |
| COC(=O)C(C)c1ccc(C(=O)c2cccs2)cc1 (centres unmarked) [suprofen methyl ester] | No |
| C[C@]12C=CC(=O)C=C1CC[C@@H]1[C@@H]2CC[C@]2(C)C(=O)CC[C@@H]12 [androsta-1,4-dien-3,17-dione] | Yes |
| C[C@@H]1CC[C@@]2(OC1)O[C@H]1C[C@H]3[C@@H]4CC=C5C[C@@H](O)CC[C@]5(C)[C@H]4CC[C@]3(C)[C@H]1[C@@H]2C [diosgenin] | Yes |
| COC(=O)CCC(=O)O[C@H]1CC[C@@]2(C)[C@@H](CC[C@@H]3[C@@H]2C(=O)C(O)[C@]2(C)[C@@H]4[C@H](C[C@@H]32)O[C@]2(CC[C@@H](C)CO2)[C@H]4C)C1 (some centres unmarked) | No |
| O=c1cc(-c2ccc(O)cc2)oc2cc(O[C@@H]3O[C@H](CO)[C@@H](O)[C@H](O)[C@H]3O)cc(O)c12 [cosmosiin] | Yes |

Value source: patent US20090143279A1
